B1: DLC1 (parent)
chain: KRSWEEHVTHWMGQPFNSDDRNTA

# Variants of: B1
# Protocol: protein stability index of a GFP-peptide fusion (GPS, HEK-293T) (PSI 1-6); higher = more stable;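 also: lentivirally expressed fusions sorted by FACS into six bins by GFP to DsRed ratio, PSI derived from sequencing read proportions per bin multiplied by bin number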
# Test conditions: c terminus: a fixed tail appended
I would appreciate it if you labelled entries True when protein stability index is 3 or higher, otherwise False.

# count of solved cases: 2
{"columns": ["Sequence input", "Class name"],
 "data": [
  ["KRSWEESVTHWMGQPFNSDDRNTA [H7S]", "True"],
  ["KRSWEEHVTHWMGQPFNSQDRNTA [D19Q]", "False"]
]}

Is it the case that KRSWEEHVTHWMYQPFNSDDRNTA [G13Y] has protein stability index reaching or exceeding 3? False

Is protein stability index for KRSWEEHVTHWMGQFFNSDDRNTA [P15F] at or above 3? False
